- Test system: LOX IMVI
- Assay overview: NCI tumour cell line growth inhibition, 48 h
Calls of active or inactive are those of the source. No stated cut-off is given here; in the data, active = GI50 up to about 1.1 µM and inactive = higher.
A correct response names exactly one class from Yes (active), No (inactive)

Request: Entry `CSc1nc(SC)c2c(CN=[N+]=[N-])c(Br)n(Cc3ccccc3)c2n1` : call = ?
Response: No

* * *

- System: SF-295
- Assay overview: NCI tumour cell line growth inhibition, 48 h
Activity calls are given as the source filed them. Rule as the data show it: active = GI50 up to about 1.1 µM and inactive = higher.
A correct response names exactly one class from active, inactive

Here's what some known entries look like.
[[record]]
compound = "CN(C)c1ccc(C(=O)NCCCCCCC(=O)NO)cc1"
assigned_label = "active"

[[record]]
compound = "CN/C(=N\\CCSCc1nc[nH]c1C)NC#N [CIMETIDINE]"
assigned_label = "inactive"

[[record]]
compound = "OC1c2ccccc2CCC1CN1CCN(CCOC(c2ccc(F)cc2)c2ccc(F)cc2)CC1 (stereo not drawn)"
assigned_label = "inactive"

[[record]]
compound = "Cn1c(=O)cc(NCc2ccc(Cl)cc2)[nH]c1=O"
assigned_label = "inactive"

[[record]]
compound = "O=C1c2ccccc2C(=O)c2sc(Nc3ccc(Cl)cc3)nc21"
assigned_label = "inactive"


Request: Entry `O=c1c2ccccc2n2nnc3ccc(NCCCNCCNCCCNc4ccc5nnn6c7ccccc7c(=O)c4c56)c1c32` : call = ?
Response: inactive

Request: Try CC1=Nc2c(ccc3c2C(=O)c2ccccc2C3=O)NC(c2ccncc2)C1 (stereo not drawn) next.
Response: inactive

Request: Try COc1ccc(C2C(=O)c3c(OC)cc(OC)cc3OC2c2cccnc2)cc1 (stereo not drawn) next.
Response: inactive

Request: Try `CCN(CC)c1c(-c2c(OC(C)C)c(=O)c2=O)c(=O)n2ccsc2c1OC(C)=O` next.
Response: inactive

Request: Try `CC(C)CN(CC#N)CC(C)C` next.
Response: inactive

Request: Try `Cc1ccc(S(=O)(=O)/N=C2/N(C)CCCS2(=O)=O)cc1` next.
Response: active

* * *

Consider the following compounds and their measured GI50 readings.
- Test system: UO-31
- Assay overview: NCI tumour cell line growth inhibition, 48 h
Where a name gives a salt, the structure may show the parent alone. The source made the active and inactive calls. No stated cut-off is given here; in the data, active = GI50 up to about 1.1 µM and inactive = higher.

Request: Which value of GI50 has been reported for CN1C[C@H](C(=O)N[C@]2(C)O[C@@]3(O)[C@@H]4CCCN4C(=O)[C@H](Cc4ccccc4)N3C2=O)C=C2c3cccc4[nH]cc(c34)C[C@H]21 [ERGOTAMINE TARTRATE] in the records?
Response: 29.1 µM (inactive)

Request: Try `CN(c1n[n+]2c(-c3ccccc3)csc2s1)c1n[n+]2c(-c3ccccc3)csc2s1` next.
Response: > 100 µM (inactive)

Request: Try `Cc1cc2c(cc1Cl)SC(NNc1ccc([N+](=O)[O-])cc1)=NS2(=O)=O` next.
Response: > 10 µM (inactive)

* * *

- Test system: MDA-MB-231
- Assay overview: NCI tumour cell line growth inhibition, 48 h
Calls of active or inactive are those of the source. No stated cut-off is given here; in the data, active = GI50 up to about 1.1 µM and inactive = higher.
A correct response names exactly one class from true (active), false (inactive)

Here's what some known entries look like.
[[record]]
molecule = "Cc1ccc(S(=O)(=O)NC(=O)NC(Cc2ccc(O)cc2)C(=O)O)cc1 (stereo unspecified)"
assigned_label = "false"

[[record]]
molecule = "O=C1/C(=C\\c2ccc(Cl)cc2Cl)Sc2scc(-c3cccc([N+](=O)[O-])c3)[n+]21"
assigned_label = "false"

[[record]]
molecule = "CCNc1ncnc2c1nnn2CC"
assigned_label = "false"

[[record]]
molecule = "N#C/C(=C\\c1cc(O)c(O)c(O)c1)C(N)=O"
assigned_label = "false"

[[record]]
molecule = "COCOC1C=CCCCC2=CC(C)=C(CC1)O2 (stereo unspecified)"
assigned_label = "false"


Request: Entry `COc1ccc(/N=C2\C(=S)N(c3ccc(OC)cc3)/C(=N/S(=O)(=O)c3ccccc3)N2c2ccccc2)cc1` : call = ?
Response: false

Request: Try `COc1cc2nc(-c3cccs3)nc(Nc3cccc([N+](=O)[O-])c3)c2cc1OC` next.
Response: false

Request: Try `Cc1ccc(S(=O)(=O)N2CCSCCSCCSCCSCC2)cc1` next.
Response: false

The reported numbers originate from ChEMBL document CHEMBL1201862.
